System: ZIKV human strain R116265 (2016/Mexico)
Assay: Plaque reduction inhibition assay in Vero E6 cells, ZIKV R116265
Type: cell-based, Zika virus (ZIKV)
Settings: Table 7, gossypol derivatives, read-out: ZIKV strains IC50, R116265
Below, each entry is listed alongside its reported IC50.
measured_property: IC50 (µM)

1) Cc1cc2c(C(C)C)c(O)c(O)c(/C=N/n3c(=O)[nH][nH]c3=O)c2c(O)c1-c1c(C)cc2c(C(C)C)c(O)c(O)c(/C=N/n3c(=O)[nH][nH]c3=O)c2c1O :: 2.91
2) Cc1cc2c(C(C)C)c(O)c(O)c3c2c(c1-c1c(C)cc2c(C(C)C)c(O)c(O)c4c2c1OC4N)OC3N (stereo not shown) :: 2.57
3) CCC(O)/N=C/c1c(O)c(O)c(C(C)C)c2cc(C)c(-c3c(C)cc4c(C(C)C)c(O)c(O)c(/C=N/C(O)CC)c4c3O)c(O)c12 (stereo not shown) :: 3.13
4) Cc1cc2nc[nH]c2c(N=Cc2c(O)c(O)c(C(C)C)c3cc(C)c(-c4c(C)cc5c(C(C)C)c(O)c(O)c(C=Nc6c(C)c(C)cc7nc[nH]c67)c5c4O)c(O)c23)c1C :: 7.97
